# Test system: Nuclear hormone receptor DAF-12 (Heterodera glycines), GAL4 fusion
# TEST PROTOCOL: H. glycines DAF-12 receptor agonists, primary screen, cell-based, luminescence, HEK293, GAL4 fusion, UAS-luciferase (AID 687014);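 further: 0% = DMSO wells and 100% = sodium butyrate wells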
# PARTICULARS: HEK293 GAL4-hgDAF12 UAS-luciferase reporter, agonist luminescence; at 6.8 µM; stronger effect = higher value; normalized to butyrate control
Among all 370,000 compounds or so, about 6,800 (1.8%) were called active. Shown is part of a subset that was picked to be rich in actives.
Below, each entry is listed with its recorded activation.

COMPOUND	activation (%)
COc1cc(/C=N/Nc2nc3ccccc3s2)ccc1O	15
Cc1ccc(C(=O)N(Cc2ccccn2)CC2CCCO2)cc1 (configuration not stated)	-3.33
O=C(Nc1ccccc1)Nc1nc2ccccc2s1	26.4
O=C(O)C1C2C=CC(O2)C1C(=O)Nc1ccccn1 (configuration not stated)	0.96
CS(=O)(=O)N1CCC(C(=O)N2CCN(c3ccccc3)CC2)CC1	-2.01
CS(=O)(=O)N1CCN(c2cccc(Cl)n2)CC1	-0.95
O=C(Nc1ccc2c(c1)OCO2)C1CC(c2c(F)cccc2Cl)=NO1 (configuration not stated)	7.76
COc1ccc(-c2csc(-c3cccs3)n2)cc1OC	14.5
CS(=O)(=O)N1CCc2nc(-c3ccccc3)sc2C1	15.3
CNS(=O)(=O)c1ccc(NC(=O)Nc2ccc3c(c2)OCO3)cc1	18.5
CCc1c(C)c2c(C)[nH]nc2oc1=O	-1.18
COc1cc(NC(=O)C2CCCN(S(=O)(=O)c3ccc(C(C)(C)C)cc3)C2)cc(OC)c1 (configuration not stated)	4.12
COc1ccc(-c2cc(-c3nnc(SCC(=O)Nc4cccc5ccccc45)n3N)[nH]n2)cc1	-0.33
O=C(Nc1cccc(Cl)c1)OC1CC2CC1[C@H]1CCCCN1[C@H]2Cc1ccccc1 (some centres not stated)	-4.33
COC(=O)[C@]12C[C@H](CC(=O)NCc3cccc(C(F)(F)F)c3)C(=O)N(Cc3ccc4c(c3)OCO4)C1=C[C@H](COCc1ccccc1)O[C@@H]2C	1.05
Fc1ccc2nc(COCc3nc4ccc(F)cc4[nH]3)[nH]c2c1	0.86
CCN(C(=O)[C@@H](C1CC1)[C@@H](O)c1ccc2ccccc2c1)c1ccccc1	-0.8
C[C@H]1CN([C@@H](C)CO)C(=O)CCCn2nncc2CO[C@@H]1CN(C)C(=O)Nc1ccc(N2CCN(C)CC2)cc1	-1.55
Cc1ccc2[nH]c(=O)c(CN(CC3COCCO3)C(=O)Nc3ccccc3C)cc2c1 (configuration not stated)	-1.5
CC(=O)N1CCc2cc(S(=O)(=O)NCCC(=O)N3CCCC3)ccc21	0.07
C#CCN(C[C@@H]1[C@@H](OC(=O)NC2CC2)[C@@H](OC(=O)NC2CC2)Cn2c(=O)ccc(=O)n21)S(=O)(=O)c1ccc(C)cc1	-1.94
COc1ccc(-c2onc(C)c2-c2ccc3c(c2)OCCO3)c(O)c1	-2.49
COc1ccc(-c2csc3nc(-c4ccccc4F)oc(=O)c23)cc1OC	-0.2
COc1ccc(C(=O)CSc2nnc(-c3cnccn3)n2-c2ccc(C)cc2)cc1	-1.45
COc1ccc2nc3n(c(=O)c2c1)-c1ccc(Cl)cc1C(=O)NC3Cc1ccccc1 (configuration not stated)	-2.62
COc1cc(/C=C/C(=O)OCC(=O)NCCCc2ccccc2)ccc1O	-1.55
CS(=O)(=O)N(CC(=O)N/N=C/c1ccccn1)c1ccc(Oc2ccccc2)cc1	2.64
CCOc1ncccc1C(=O)Nc1ccc2c(c1)OCCO2	-3.84
COc1ccc(C2CC(c3cccs3)=Nc3ccccc3S2)cc1OC (configuration not stated)	6.91
O=C(c1ccncc1)N1CC[C@H]2[C@H](CCCN2Cc2ccc(F)cc2)C1	5.55
CCOC(=O)c1csc(CCNC(=O)c2oc3c(Cl)cc(C)cc3c2C)n1	1.98
Nc1[nH]c(C(=O)c2ccccc2)c(-c2ccncc2)c1C(=O)NCc1cccc2ccccc12	-0.47
Cc1cccc(NC(=O)N(Cc2cc3cc(C)cc(C)c3[nH]c2=O)CC2COCCO2)c1 (configuration not stated)	11.3
COc1cccc(/C=C/C(=O)Nc2ccc3c(c2)OCCO3)c1	16.9
Cc1cc2nc3c(=O)[nH]c(=O)nc-3n(C[C@H](O)[C@H](O)[C@H](O)CO)c2cc1C	-2.63
C[N+](C)(C)CCNC(=O)c1c[nH]c2ccccc12	0.11
COc1cc(C(=O)Nn2c(O)c(C3=c4ccccc4=NC3=O)sc2=S)ccc1O	5.04
CC(NC(=O)Nc1cccc([N+](=O)[O-])c1)c1ccc2c(c1)OCO2 (configuration not stated)	-1.33
COc1cc(OC)c(-n2cc(-c3ccc(Cl)cc3)[nH]c2=O)cc1Cl	-2.27
O=C(CCCCCn1c(=O)[nH]c2ccccc2c1=O)NCCc1c[nH]c2ccccc12	-0.27
N#Cc1c(N)nc2c(c1N)CC(C(F)(F)F)O2 (configuration not stated)	2.74
CC(C)C[C@@H](NC(=O)[C@H]1CCCN1C(=O)Cc1ccccc1)C(N)=O	1.33

Where these numbers come from: PubChem BioAssay AID687014
